target: HIV-RT (Human immunodeficiency virus type 1 group M subtype B, UniProt P04585); construct: 1 unit/mL of HIV-RT (Worthington Biochemical Corp., Freehold, N.J.); purchased Worthington Biochemical Corp., Freehold, N.J; experiment: Checkerboard combination of lavendamycin analogs with AZT-triphosphate in HIV-RT enzyme assay (Chou and Talalay); format: biochemical; details: analogue 1.5 μM + AZT 0.01 μM, Trial 2
Result Type: Combination index

                                   compound  reported_value
0  CC(=O)NC1=CC(=O)c2ccc(-c3nc(C(=O)OCCOP(=O)(O)O)cc4c3[nH]c3ccccc34)nc2C1=O            0.69
1  COC(=O)c1nc(-c2ccc3c(n2)C(=O)C(NC(C)=O)=CC3=O)c2[nH]c3ccccc3c2c1C            1.12
2  CC(=O)NC1=CC(=O)c2ccc(-c3nc(C(N)=O)cc4c3[nH]c3ccccc34)nc2C1=O [Compound 16, 7-N-Acetyldemethyllavendamycin Amide]             1.0

----------
target: HIV-RT (Human immunodeficiency virus type 1 group M subtype B); construct: 1 unit/mL of HIV-RT (Worthington Biochemical Corp., Freehold, N.J.); purchased Worthington Biochemical Corp., Freehold, N.J; assay: Two drug combination of AZT-TP and analogues at constant molar ratios in HIV-RT assay (CI and dose reduction index); assay type: biochemical; settings: molar ratio AZT:analogue 1:600
Result Type: Dose Reduction Index (50%) analogue

                                   compound                               test_target                          result_type  readout_relation  reported_value
0  CCCCCCCCOC(=O)c1cc2c([nH]c3ccccc32)c(-c2ccc3c(n2)C(=O)C(N)=CC3=O)n1 [Compound 20, Demethyllavendamycin n-Octyl Ester]  HIV-RT (Human immunodeficiency virus type 1 group M subtype B)  Dose Reduction Index (50%) analogue                 =            13.7
1  CC(=O)NC1=CC(=O)c2ccc(-c3nc(C(=O)OCCOP(=O)(O)O)cc4c3[nH]c3ccccc34)nc2C1=O [Compound 19]  HIV-RT (Human immunodeficiency virus type 1 group M subtype B)  Dose Reduction Index (50%) analogue                 >             100
2  CCCCOC(=O)c1cc2c([nH]c3ccccc32)c(-c2ccc3c(n2)C(=O)C(NC(=O)CCC)=CC3=O)n1 [Compound 12]  HIV-RT (Human immunodeficiency virus type 1 group M subtype B)  Dose Reduction Index (50%) analogue                 =             8.2
3  CC(=O)NC1=CC(=O)c2ccc(-c3nc(C(=O)O)cc4c3[nH]c3ccccc34)nc2C1=O [Compound 18, 7-N-Acetyldemethyllavendamycin]  HIV-RT (Human immunodeficiency virus type 1 group M subtype B)  Dose Reduction Index (50%) analogue                 =             2.6

----------
# Combination index annotations
biological target: HIV-RT (Human immunodeficiency virus type 1 group M subtype B); construct: 1 unit/mL of HIV-RT (Worthington Biochemical Corp., Freehold, N.J.); purchased Worthington Biochemical Corp., Freehold, N.J; test: Checkerboard combination of lavendamycin analogs with AZT-triphosphate in HIV-RT enzyme assay (Chou and Talalay); assay type: biochemical; settings: analogue 1.5 μM + AZT 0.01 μM, Trial 1
Result Type: Combination index

In [3]: df
Out[3]:
                                   compound  reported_value
0  COC(=O)c1nc(-c2ccc3c(n2)C(=O)C(NC(C)=O)=CC3=O)c2[nH]c3ccccc3c2c1C            1.40
1  CC(=O)NC1=CC(=O)c2ccc(-c3nc(C(N)=O)cc4c3[nH]c3ccccc34)nc2C1=O [Compound 16, 7-N-Acetyldemethyllavendamycin Amide]             1.0
2  CC(=O)NC1=CC(=O)c2ccc(-c3nc(C(=O)OCCOP(=O)(O)O)cc4c3[nH]c3ccccc34)nc2C1=O            0.69

----------
# pIC50 annotations
target: HIV reverse transcriptase (HIV-RT) (Human immunodeficiency virus type 1 group M subtype B, UniProt P04585); construct: 1 unit/mL of HIV-RT (Worthington Biochemical Corp., Freehold, N.J.); purchased Worthington Biochemical Corp., Freehold, N.J; assay: HIV-RT assay (3H-TTP incorporation, modified assay of Okada et al.); format: biochemical; settings: read-out: IC50 against HIV-RT
pIC50: −log10 of the molar value.
Result Type: pIC50

In [3]: df
Out[3]:
                                   molecule  reported_value
0  CCCCOC(=O)c1cc2c([nH]c3ccccc32)c(-c2ccc3c(n2)C(=O)C(NC(=O)CCC)=CC3=O)n1 [Compound 12]          > 5.10
1  CCCCCCCCOC(=O)c1cc2c([nH]c3ccccc32)c(-c2ccc3c(n2)C(=O)C(N)=CC3=O)n1 [Compound 20, Demethyllavendamycin n-Octyl Ester]          > 5.10

----------
Target: HIV-RT (Human immunodeficiency virus type 1 group M subtype B, UniProt P04585)
Construct: 1 unit/mL of HIV-RT (Worthington Biochemical Corp., Freehold, N.J.); purchased Worthington Biochemical Corp., Freehold, N.J
Assay: Checkerboard combination of lavendamycin analogs with AZT-triphosphate in HIV-RT enzyme assay (Chou and Talalay)
Assay type: biochemical
Conditions: analogue 0.25 μM + AZT 0.007 μM, Trial 2
From the text: […] The assay procedure described below is adapted from Okada et al. (Okada, H.; Mukai, H.; Inouye, Y; Nakamura, S. “Biological Properties of Streptonigrin Derivatives II. Inhibition of Reverse Transcriptase Activity,” J. Antibiot., 1986, 39, 306-308). […] For each assay, the reaction mixture containing 8× buffer, double distilled H2O, ^3HTTP, template-primer and HIV-RT was pre-mixed in a 15-mL sterile tube in quantities required for the particular experiment. […]
// NB: equality with 0.6 counts as Not fulfilled; only Combination index strictly below is Fulfilled

>>> print(df.to_string())
                                   compound                               test_target  assigned_label
0  COC(=O)c1nc(-c2ccc3c(n2)C(=O)C(NC(C)=O)=CC3=O)c2[nH]c3ccccc3c2c1C [Compound 11, 7-acetyllavendamycin methyl ester]  HIV-RT (Human immunodeficiency virus type 1 group M subtype B, UniProt P04585)       Fulfilled
1  CC(=O)NC1=CC(=O)c2ccc(-c3nc(C(N)=O)cc4c3[nH]c3ccccc34)nc2C1=O [Compound 16, 7-N-Acetyldemethyllavendamycin Amide]  HIV-RT (Human immunodeficiency virus type 1 group M subtype B, UniProt P04585)   Not fulfilled
2  CC(=O)NC1=CC(=O)c2ccc(-c3nc(C(=O)O)cc4c3[nH]c3ccccc34)nc2C1=O [Compound 18, 7-N-Acetyldemethyllavendamycin]  HIV-RT (Human immunodeficiency virus type 1 group M subtype B, UniProt P04585)       Fulfilled
3  CCCCOC(=O)c1cc2c([nH]c3ccccc32)c(-c2ccc3c(n2)C(=O)C(NC(=O)CCC)=CC3=O)n1 [Compound 12]  HIV-RT (Human immunodeficiency virus type 1 group M subtype B, UniProt P04585)   Not fulfilled

----------
biological target: HIV-RT (Human immunodeficiency virus type 1 group M subtype B, UniProt P04585); construct: 1 unit/mL of HIV-RT (Worthington Biochemical Corp., Freehold, N.J.); purchased Worthington Biochemical Corp., Freehold, N.J; assay: Two drug combination of AZT-TP and analogues at constant molar ratios in HIV-RT assay (CI and dose reduction index); assay type: biochemical; details: molar ratio AZT:analogue 1:600
Result Type: Dose Reduction Index (50%) AZT-TP

>>> df
                                   molecule                        result_type  readout_relation  reported_value
0  CC(=O)NC1=CC(=O)c2ccc(-c3nc(C(=O)O)cc4c3[nH]c3ccccc34)nc2C1=O [Compound 18, 7-N-Acetyldemethyllavendamycin]  Dose Reduction Index (50%) AZT-TP                 =             1.5
1  CCCCCCCCOC(=O)c1cc2c([nH]c3ccccc32)c(-c2ccc3c(n2)C(=O)C(N)=CC3=O)n1 [Compound 20, Demethyllavendamycin n-Octyl Ester]  Dose Reduction Index (50%) AZT-TP                 =             2.4
2  CC(=O)NC1=CC(=O)c2ccc(-c3nc(C(=O)OCCOP(=O)(O)O)cc4c3[nH]c3ccccc34)nc2C1=O [Compound 19]  Dose Reduction Index (50%) AZT-TP                 >             100
3  CCCCOC(=O)c1cc2c([nH]c3ccccc32)c(-c2ccc3c(n2)C(=O)C(NC(=O)CCC)=CC3=O)n1 [Compound 12]  Dose Reduction Index (50%) AZT-TP                 =             3.0

Origin of values: patent US20060079497A1
